Property: log10(Kd); scope: individual sequences
Target: HLA-A*02:01
Assay: IEDB peptide-MHC binding, purified MHC/direct/fluorescence; filed as Kd, often an IC50 or EC50 that approximates it; bounds were set here for any values at or beyond the usual limits of such assays
Conditions: source organism: Mycobacterium tuberculosis H37Rv
OBSERVATION TYPE: log10(Kd) (log10 of the value in nM)

sequence_text=AMAGSIDLL reading=0.60
sequence_text=SLRNWIATL reading=1.82
sequence_text=YVYPDNLPV reading=0.30
sequence_text=SLWKDGAPL reading=0.70
sequence_text=GMFANRWII reading=1.43
sequence_text=KLQERLAKL reading=1.26
